# credit: ChEMBL document CHEMBL5505983

system: Escherichia coli; experiment: Ratio of MBC to MIC for Escherichia coli CIP 53154; assay type: functional
METRIC: Ratio
Numbers only.

These recorded examples may help you get a feel for the data.
1. CCOP(=O)(OCC)C(Nc1ccc(F)cc1)c1cc(Cn2cc(Cn3c(=O)cc(C)c4cc(F)ccc43)nn2)ccc1O (configuration not stated)    1
2. Cc1cc(=O)n(Cc2cn(Cc3ccc(O)c(C=O)c3)nn2)c2ccccc12    1.93
3. CCOP(=O)(OCC)C(Nc1ccccc1OC)c1cc(Cn2cc(Cn3c(=O)cc(C)c4cc(Br)ccc43)nn2)ccc1O (configuration not stated)    1.99
4. CO[C@H]1/C=C/O[C@@]2(C)Oc3c(C)c(O)c4c(O)c(c(/C=N/N5CCN(C)CC5)c(O)c4c3C2=O)NC(=O)/C(C)=C\C=C\[C@H](C)[C@H](O)[C@@H](C)[C@@H](O)[C@@H](C)[C@H](OC(C)=O)[C@@H]1C [RIFAMPIN]    2.03
5. CCOP(=O)(OCC)C(Nc1ccccc1)c1cc(Cn2cc(Cn3c(=O)cc(C)c4cc(F)ccc43)nn2)ccc1O (configuration not stated)    1

# map each molecule to its Ratio
1. CCOP(=O)(OCC)C(Nc1ccc(C)cc1)c1cc(Cn2cc(Cn3c(=O)cc(C)c4cc(Br)ccc43)nn2)ccc1O (configuration not stated)
2. CC1(C)S[C@@H]2[C@H](NC(=O)[C@H](N)c3ccccc3)C(=O)N2[C@H]1C(=O)O [AMPICILLIN]

Result:
2.02
2.04

* * *

For each entry below, report its selectivity ratio value.
assay: Selectivity index, ratio of CC50 for human RD cells to IC50 for human EV71 infected in human RD cells; format: toxicity, cell-based; conditions: read-out: Ratio CC50/IC50
Give bare numbers.

1) Cc1cc(=O)n(Cc2cn(Cc3ccc(O)c(C=O)c3)nn2)c2ccc(F)cc12    1.44

Reported selectivity ratio ( "Cc1cc(=O)n(Cc2cn(Cc3ccc(O)c(C=O)c3)nn2)c2ccc(Br)cc12" ) = 1.33

* * *

assay: Selectivity index, ratio of CC50 for human Huh-7 cells to IC50 for Yellow fever virus infected in human Huh-7 cells; format: toxicity, cell-based; conditions: read-out: Ratio CC50/IC50
METRIC: selectivity ratio
Give bare numbers.

1) CCOP(=O)(OCC)C(Nc1ccccc1Br)c1cc(Cn2cc(Cn3c(=O)cc(C)c4ccccc43)nn2)ccc1O (stereo not given)    3.03

For every item in the list below, what is its measured selectivity ratio?
1. CCOP(=O)(OCC)C(Nc1ccccc1Cl)c1cc(Cn2cc(Cn3c(=O)cc(C)c4cc(F)ccc43)nn2)ccc1O (stereo not given)
2. CCOP(=O)(OCC)C(Nc1ccccc1Cl)c1cc(Cn2cc(Cn3c(=O)cc(C)c4cc(Br)ccc43)nn2)ccc1O (stereo not given)
3. CCOP(=O)(OCC)C(Nc1ccccc1Br)c1cc(Cn2cc(Cn3c(=O)cc(C)c4cc(Br)ccc43)nn2)ccc1O (stereo not given)
4. C[C@@]1(O)[C@H](O)[C@@H](CO)O[C@H]1n1ccc2c(N)ncnc21

Result:
3.01
2.02
2.68
3.07

* * *

system: Pseudomonas aeruginosa; test: Antibacterial activity against Pseudomonas aeruginosa CIP A22 assessed as reduction in bacterial growth by micro-broth dilution method; format: functional
Would you mind telling me the reported MIC of each entry?
Answers are plain numbers, in µM.

For every item in the list below, what is its measured MIC?
1. CCOP(=O)(OCC)C(Nc1ccccc1Br)c1cc(Cn2cc(Cn3c(=O)cc(C)c4cc(Br)ccc43)nn2)ccc1O (stereo not drawn)
2. CCOP(=O)(OCC)C(Nc1ccccc1)c1cc(Cn2cc(Cn3c(=O)cc(C)c4ccccc43)nn2)ccc1O (stereo not drawn)
3. Cc1cc(=O)n(Cc2cn(Cc3ccc(O)c(C=O)c3)nn2)c2ccc(Br)cc12
4. CCOP(=O)(OCC)C(Nc1ccc(F)cc1)c1cc(Cn2cc(Cn3c(=O)cc(C)c4cc(Br)ccc43)nn2)ccc1O (stereo not drawn)
5. CC1(C)S[C@@H]2[C@H](NC(=O)[C@H](N)c3ccccc3)C(=O)N2[C@H]1C(=O)O
6. CCOP(=O)(OCC)C(Nc1ccccc1OC)c1cc(Cn2cc(Cn3c(=O)cc(C)c4cc(F)ccc43)nn2)ccc1O (stereo not drawn)
7. CCOP(=O)(OCC)C(Nc1ccc(F)cc1)c1cc(Cn2cc(Cn3c(=O)cc(C)c4cc(F)ccc43)nn2)ccc1O (stereo not drawn)

Result:
[420, 2130, 2760, 1830, 530, 1970, 8020]

// MIC value for CCOP(=O)(OCC)C(Nc1ccc(C)cc1)c1cc(Cn2cc(Cn3c(=O)cc(C)c4cc(Br)ccc43)nn2)ccc1O (stereo not drawn) : 1840

* * *

experiment: Cytotoxicity against human HeLa-RH cells; type: toxicity, cell-based
METRIC: CC50

1) CCOP(=O)(OCC)C(Nc1ccccc1Cl)c1cc(Cn2cc(Cn3c(=O)cc(C)c4cc(F)ccc43)nn2)ccc1O (stereo not drawn)    12.5 µM
2) Cc1cc(=O)n(Cc2cn(Cc3ccc(O)c(C=O)c3)nn2)c2ccccc12    11.4 µM
3) CCOP(=O)(OCC)C(Nc1ccc(C)cc1)c1cc(Cn2cc(Cn3c(=O)cc(C)c4ccccc43)nn2)ccc1O (stereo not drawn)    > 100 µM
4) CCOP(=O)(OCC)C(Nc1ccccc1)c1cc(Cn2cc(Cn3c(=O)cc(C)c4cc(F)ccc43)nn2)ccc1O (stereo not drawn)    > 100 µM
5) CCOP(=O)(OCC)C(Nc1ccccc1OC)c1cc(Cn2cc(Cn3c(=O)cc(C)c4cc(Br)ccc43)nn2)ccc1O (stereo not drawn)    > 33.3 µM
6) Cc1cc(=O)n(Cc2cn(Cc3ccc(O)c(C=O)c3)nn2)c2ccc(Br)cc12    8.61 µM

Would you mind listing CC50 for each of the following compounds?
1. CCOP(=O)(OCC)C(Nc1ccc(F)cc1)c1cc(Cn2cc(Cn3c(=O)cc(C)c4cc(F)ccc43)nn2)ccc1O (stereo not drawn)
2. CCOP(=O)(OCC)C(Nc1ccccc1Br)c1cc(Cn2cc(Cn3c(=O)cc(C)c4cc(Br)ccc43)nn2)ccc1O (stereo not drawn)

Result:
1: > 100 µM; 2: 18.4 µM

* * *

test: Cytotoxicity against African green monkey Vero A cells; format: toxicity, cell-based; conditions: chlorocebus sabaeus
Provide the reported CC50 of each item.
Numbers only, in µM.

Worked cases, answers included:
1. CCOP(=O)(OCC)C(Nc1ccccc1OC)c1cc(Cn2cc(Cn3c(=O)cc(C)c4cc(F)ccc43)nn2)ccc1O (centres undefined)    40.8
2. CCOP(=O)(OCC)C(Nc1ccccc1Br)c1cc(Cn2cc(Cn3c(=O)cc(C)c4cc(Br)ccc43)nn2)ccc1O (centres undefined)    10.1
3. CCOP(=O)(OCC)C(Nc1ccc(F)cc1)c1cc(Cn2cc(Cn3c(=O)cc(C)c4cc(Br)ccc43)nn2)ccc1O (centres undefined)    25.8

Below: the item to evaluate.
Per the records, this molecule ( CCOP(=O)(OCC)C(Nc1ccccc1Cl)c1cc(Cn2cc(Cn3c(=O)cc(C)c4cc(F)ccc43)nn2)ccc1O (centres undefined) ) has CC50 equal to 7

* * *

assay: Cytotoxicity against African green monkey Vero E6 cells; type: toxicity, cell-based, Vero C1008; conditions: chlorocebus sabaeus
Provide the recorded CC50 for the entries that follow.

1. CCOP(=O)(OCC)C(Nc1ccc(C)cc1)c1cc(Cn2cc(Cn3c(=O)cc(C)c4ccccc43)nn2)ccc1O (configuration not stated)    > 100 µM

Provide reported CC50 for each item, in the same order as listed.
1. CCOP(=O)(OCC)C(Nc1ccccc1Br)c1cc(Cn2cc(Cn3c(=O)cc(C)c4ccccc43)nn2)ccc1O (configuration not stated)
2. CCOP(=O)(OCC)C(Nc1ccc(C)cc1)c1cc(Cn2cc(Cn3c(=O)cc(C)c4cc(F)ccc43)nn2)ccc1O (configuration not stated)
3. CCOP(=O)(OCC)C(Nc1ccc(F)cc1)c1cc(Cn2cc(Cn3c(=O)cc(C)c4ccccc43)nn2)ccc1O (configuration not stated)
4. Cc1cc(=O)n(Cc2cn(Cc3ccc(O)c(C=O)c3)nn2)c2ccc(Br)cc12

Result:
1: > 100 µM; 2: > 100 µM; 3: > 100 µM; 4: 52.7 µM

* * *

For each record, write down the corresponding IC50.
test system: Enterovirus A71; assay: Antiviral activity against human EV71 infected in human RD cells assessed as inhibition of cytopathic effect by microscopy based analysis; type: functional, organism-based; settings: Enterovirus A

Some solved entries appear below for comparison.
1) CCOP(=O)(OCC)C(Nc1ccccc1)c1cc(Cn2cc(Cn3c(=O)cc(C)c4ccccc43)nn2)ccc1O (configuration not stated)    > 100 µM
2) Cc1cc(=O)n(Cc2cn(Cc3ccc(O)c(C=O)c3)nn2)c2ccc(Br)cc12    33.3 µM
3) CCOP(=O)(OCC)C(Nc1ccc(F)cc1)c1cc(Cn2cc(Cn3c(=O)cc(C)c4cc(Br)ccc43)nn2)ccc1O (configuration not stated)    > 100 µM
4) CCOP(=O)(OCC)C(Nc1ccc(C)cc1)c1cc(Cn2cc(Cn3c(=O)cc(C)c4cc(Br)ccc43)nn2)ccc1O (configuration not stated)    > 100 µM
5) CCOP(=O)(OCC)C(Nc1ccc(F)cc1)c1cc(Cn2cc(Cn3c(=O)cc(C)c4cc(F)ccc43)nn2)ccc1O (configuration not stated)    > 100 µM

Kindly give each listed record's IC50.
1. CCOP(=O)(OCC)C(Nc1ccc(I)cc1)c1cc(Cn2cc(Cn3c(=O)cc(C)c4cc(F)ccc43)nn2)ccc1O (configuration not stated)
2. CCOP(=O)(OCC)C(Nc1ccccc1Cl)c1cc(Cn2cc(Cn3c(=O)cc(C)c4ccccc43)nn2)ccc1O (configuration not stated)
3. CCOP(=O)(OCC)C(Nc1ccccc1Br)c1cc(Cn2cc(Cn3c(=O)cc(C)c4ccccc43)nn2)ccc1O (configuration not stated)
4. CCOP(=O)(OCC)C(Nc1ccc(F)cc1)c1cc(Cn2cc(Cn3c(=O)cc(C)c4ccccc43)nn2)ccc1O (configuration not stated)
5. CCOP(=O)(OCC)C(Nc1ccccc1Br)c1cc(Cn2cc(Cn3c(=O)cc(C)c4cc(Br)ccc43)nn2)ccc1O (configuration not stated)
6. CCOP(=O)(OCC)C(Nc1ccccc1OC)c1cc(Cn2cc(Cn3c(=O)cc(C)c4cc(Br)ccc43)nn2)ccc1O (configuration not stated)
7. CCOC(=O)/C=C/[C@H](C[C@@H]1CCNC1=O)NC(=O)[C@@H](CC(=O)[C@@H](NC(=O)c1cc(C)on1)C(C)C)Cc1ccc(F)cc1

Result:
1. > 100 µM
2. > 100 µM
3. > 100 µM
4. > 100 µM
5. > 100 µM
6. > 100 µM
7. 1.87 µM
